- Tested on: Candida albicans
- ASSAY PROTOCOL: Antifungal activity against Candida albicans ATCC 90028 after 18 to 24 hrs by micro-dilution metho
- Format: functional
MEASURED ENDPOINT: MIC (µg/mL)
Write the answer as a number in µg/mL, unit excluded.

Cc1cc(C)cc(-n2cc(CN(Cc3cn(-c4cc(C)cc(C)c4)nn3)c3nc4ccccc4s3)nn2)c1 3.12

Ask | What reported MIC corresponds to Clc1ccc(-n2cc(CN(Cc3cn(-c4ccc(Cl)cc4Cl)nn3)c3nc4ccccc4s3)nn2)c(Cl)c1 on Candida albicans?
Reply | 6.25

###

- ASSAY PROTOCOL: Cytotoxicity against human RBC assessed as hemolytic activity at 100 uM after 1 hr by spectophotometry
- Assay type: cell-based, Erythrocyte
- EXPERIMENTAL PARAMETERS: red blood cells (RBC), read-out: Activity
Define the label as 1.0 when hemolysis at 1 h, 100 µM is strictly less than 30% and as 0.0 in all remaining cases.

Reference set (5 entries):
Fc1ccc(-n2cc(CN(Cc3cn(-c4ccc(F)cc4Cl)nn3)c3nc4ccccc4s3)nn2)c(Cl)c1 1.0
CCc1ccc(-n2cc(CN(Cc3cn(-c4ccc(CC)cc4)nn3)c3nc4ccccc4s3)nn2)cc1 0.0
Fc1ccccc1-n1cc(CN(Cc2cn(-c3ccccc3F)nn2)c2nc3ccccc3s2)nn1 1.0
CCCCCc1ccc(-n2cc(CN(Cc3cn(-c4ccc(CCCCC)cc4)nn3)c3nc4ccccc4s3)nn2)cc1 1.0
Clc1ccccc1-n1cc(CN(Cc2cn(-c3ccccc3Cl)nn2)c2nc3ccccc3s2)nn1 1.0

Ask | Please indicate whether the reported hemolysis at 1 h, 100 µM of c1ccc2c(-n3cc(CN(Cc4cn(-c5cccc6ccccc56)nn4)c4nc5ccccc5s4)nn3)cccc2c1 is strictly below 30%.
Reply | 0.0

Ask | Here is the next molecule: FC(F)(F)Oc1ccc(-n2cc(CN(Cc3cn(-c4ccc(OC(F)(F)F)cc4)nn3)c3nc4ccccc4s3)nn2)cc1
Reply | 1.0

Ask | Here is the next molecule: Fc1ccc(-n2cc(CN(Cc3cn(-c4ccc(F)cc4F)nn3)c3nc4ccccc4s3)nn2)c(F)c1
Reply | 1.0

Ask | Here is the next molecule: O=[N+]([O-])c1ccc(-n2cc(CN(Cc3cn(-c4ccc([N+](=O)[O-])cc4)nn3)c3nc4ccccc4s3)nn2)cc1
Reply | 1.0

Ask | Here is the next molecule: Clc1cccc(-n2cc(CN(Cc3cn(-c4cccc(Cl)c4Cl)nn3)c3nc4ccccc4s3)nn2)c1Cl
Reply | 0.0

Ask | Here is the next molecule: Clc1ccc(-n2cc(CN(Cc3cn(-c4ccc(Cl)cc4Cl)nn3)c3nc4ccccc4s3)nn2)c(Cl)c1
Reply | 1.0

meta.source: ChEMBL document CHEMBL2375318
